B1: WDR41 (parent)
chain: WTMQAYERNFWDPSPQLDTQQEIK

- Variants of: B1
- experiment-summary: protein stability index of a GFP-peptide fusion (GPS, HEK-293T) (PSI 1-6); higher = more stable;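 further: lentivirally expressed fusions sorted by FACS into six bins by GFP to DsRed ratio, PSI derived from sequencing read proportions per bin multiplied by bin number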
- test-context: c terminus: a fixed tail appended
Rule: protein stability index of 3 or more gives 1 (yes); anything lower gives 0 (no).

Input: Threshold query (protein stability index >= 3) on WTMQAYERNFWDPSPQLQTQQEIK
Output: 0 (no)

Input: Threshold query (protein stability index >= 3) on WTMQAYERCFWDPSPQLDTQQEIK
Output: 0 (no)

Data provenance is the supplement of paper PMC10567573.
